Target: MDMX (Homo sapiens)
Sequence (O15151 1-125): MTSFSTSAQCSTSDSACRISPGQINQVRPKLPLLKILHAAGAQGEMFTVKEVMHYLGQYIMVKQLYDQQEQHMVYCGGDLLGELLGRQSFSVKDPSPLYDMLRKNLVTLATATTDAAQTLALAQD
Test: Competitive fluorescence polarization assay for MDMX
Assay type: binding
Conditions: competitive FP assay, read-out: Ki (MDMX)
pKi: −log10 of the molar value. Where a SMILES comes first, the peptide text is derived from it. Bridges are numbered along the chain shown (N, C = ends). [ ]: non-standard residue; d: D form. R8 = C=CCCCCCC[C@@](C)(N)C(=O)O; S5 = C=CCCC[C@](C)(N)C(=O)O; Nle = CCCC[C@H](N)C(=O)O
experimental endpoint: pKi

[
  {
    "molecule": "CCCC[C@H](NC(=O)[C@H](C)NC(=O)[C@H](C)NC(=O)[C@]1(C)CCCC=CCCCCCC[C@@](C)(NC(=O)[C@H](Cc2ccccc2)NC(=O)[C@@H](NC(=O)[C@H](C)NC(C)=O)[C@@H](C)O)C(=O)N[C@@H](CCC(=O)O)C(=O)N[C@@H](Cc2ccc(O)cc2)C(=O)N[C@@H](Cc2c[nH]c3ccccc23)C(=O)N[C@@H](C)C(=O)N[C@@H](CCC(N)=O)C(=O)N[C@@H](CC(C)C)C(=O)N1)C(=O)N[C@@H](C)C(N)=O [compound 370] (Ac-ATF[R8]EYWAQL[S5]AA[Nle]A-NH2; staple 4-11)",
    "pKi": "7.00 to 8.00"
  }
]

Identify measured pKi obtained with MDMX (Homo sapiens) for CCCC[C@H](NC(=O)[C@H](C)NC(=O)[C@H](CCC(N)=O)NC(=O)[C@H](Cc1c[nH]cn1)NC(=O)[C@]1(C)CCCC=CCCCCCC[C@@](C)(NC(=O)[C@H](Cc2ccccc2)NC(C)=O)C(=O)N[C@@H](C)C(=O)N[C@@H](Cc2ccc(O)cc2)C(=O)N[C@@H](Cc2c[nH]c3ccccc23)C(=O)N[C@@H](CO)C(=O)N[C@@H](C)C(=O)N[C@@H](CC(C)C)C(=O)N1)C(N)=O [compound 39] (Ac-F[R8]AYWSAL[S5]HQA[Nle]-NH2; staple 2-9) .
6.00 to 7.00

These data points were gathered from patent US8927500B2.
